# Tested on: SK-OV-3 ovarian
# experimental-protocol: NCI-60 one-dose screen, 48 h
# recorded-conditions: 10 µM unless noted
The panel holds about 83,000 compounds, 20% with a hit somewhere; the sample as a whole holds those more often. Active and inactive are the calls of the source. Rule for the calls: active = growth percent below 10; inactive = the rest.
Give one outcome, nothing more. List: active, inactive

# lookup: test call for O=C(Nc1cccc([N+](=O)[O-])c1)c1cc2ccccc2cc1O
active

Another compound: CNC(=O)c1cc(Oc2ccc3nc(NC(C)=O)sc3c2)ccn1
inactive

Same lookup for CCC(=C(c1ccc(OCCN2CCCC2)cc1)c1ccc(OCCN2CCCC2)cc1)c1ccc(Cl)cc1 , please.
inactive

Request: O=C(c1ccccc1)C1C(=O)N2C(=S)N(c3ccccc3)C(=O)C2C1c1ccc(Cl)cc1 (centres undefined)
inactive
